- ASSAYED_SYSTEM: Luciferin 4-monooxygenase (Photinus pyralis)
- EXPERIMENT_DESCRIPTION: qHTS of Nrf2 Activators: Hit Validation in Secondary FLuc Assay; further: nearly all actives have a fitted effect of over 65% in size
- MEASUREMENT_CONTEXT: firefly luciferase inhibition counter-screen, luminescence; series mostly up to 57.5 µM
Out of some 1,100 compounds screened, about 390 (35%) were called active. Inconclusive results (about 30%) are left out. The call rests on the fitted dose curve; in most records, active means well fitted inhibition curve with a large enough effect; inconclusive means small, poorly fitted or top-dose-only effect; inactive means flat fitted curve, though single readings scatter. Some of the results follow.
The reply should be one of these categories: yes (active), no (inactive)

Exercise: Outcome logged for COc1ccccc1NC(=O)/C=C\c1ccco1 in this assay:
Key: yes

Exercise: Outcome logged for COc1ccccc1NC(=O)c1ccc(Cl)c(S(=O)(=O)NCc2ccco2)c1 in this assay:
Key: no

Exercise: Outcome logged for CCN1CCN(c2sc(S(C)(=O)=O)nc2S(=O)(=O)c2ccc(Cl)cc2)CC1 in this assay:
Key: no

Exercise: Outcome logged for Fc1ccc(Nc2nc3ccccc3n3cnnc23)c(F)c1 in this assay:
Key: no

Exercise: Outcome logged for Brc1ccc2nc(-c3ccco3)c(Cc3ccsc3)n2c1 in this assay:
Key: yes

Exercise: Outcome logged for COc1ccc(N(CCCN2C(=O)c3cccc4cccc(c34)C2=O)C(=O)c2cccc(OC)c2)cc1 in this assay:
Key: no

Exercise: Outcome logged for Cn1nnnc1Sc1ncnc2scc(-c3cccc4ccccc34)c12 in this assay:
Key: no

Exercise: Outcome logged for CCC(CC)c1nnc(NC(=O)/C=C/c2ccco2)s1 in this assay:
Key: no

Exercise: Outcome logged for COC(=O)c1ccccc1NC(=O)/C=C/c1ccco1 in this assay:
Key: yes

Exercise: Outcome logged for COC(=O)c1ccccc1NC(=O)c1cc(-c2ccco2)on1 in this assay:
Key: no

Exercise: Outcome logged for Cc1ccc(C(=O)N/N=C/c2ccc(-c3ccc(Br)cc3[N+](=O)[O-])o2)o1 in this assay:
Key: yes

Exercise: Outcome logged for COc1ccc(Cl)cc1NC(=O)CCS(=O)(=O)c1cccc2nonc12 in this assay:
Key: no

Exercise: Outcome logged for CCOC(=O)Cc1csc(NC(=O)/C=C/c2ccco2)n1 in this assay:
Key: yes

Exercise: Outcome logged for O=C(/C=C\c1ccc2c(c1)OCO2)CC1(O)C(=O)Nc2ccccc21 (stereo not drawn) in this assay:
Key: yes

Exercise: Outcome logged for Cc1ccc(C(=O)/C=C/c2ccc(-c3ccccc3[N+](=O)[O-])o2)cc1 in this assay:
Key: yes

Exercise: Outcome logged for Cc1cc(C)c2oc(-c3ccc(C)c(NC(=O)/C=C/c4ccco4)c3)nc2c1 in this assay:
Key: yes

Exercise: Outcome logged for CN1CCN(C(=O)/C=C/c2ccc([N+](=O)[O-])o2)CC1 in this assay:
Key: no

Exercise: Outcome logged for Oc1ccccc1Nc1nc2ccccc2n2nnnc12 in this assay:
Key: yes

Exercise: Outcome logged for O=C(CCN1C(=O)c2cccc3cccc(c23)C1=O)Nc1ccon1 in this assay:
Key: no

Exercise: Outcome logged for Cc1noc(C)c1-c1ccc2ncnc(NCC3CCCCN3C)c2c1 (stereo not drawn) in this assay:
Key: no

Exercise: Outcome logged for O=C1N/C(=N\N=C\c2ccco2)SC1Cc1ccccc1[N+](=O)[O-] (stereo not drawn) in this assay:
Key: no

Exercise: Outcome logged for CCOC(=O)c1ccc(NC(=O)c2nc(S(=O)(=O)Cc3ccccc3)ncc2Cl)cc1 in this assay:
Key: yes

Exercise: Outcome logged for Cn1c(NC(=O)/C=C/c2ccccc2)cc(=O)n(C)c1=O in this assay:
Key: yes
